Entries with their measured IC50, system UniProt P00352:
PARAMETER_MEASURED: IC50 (nM)

a. O=C(C1CC1)N1CCN(Cc2nc3ccccc3n2Cc2cccc(C(F)(F)F)c2)CC1
b. Cc1cccc(Cn2c(CN3CCN(C(=O)C(C)C)CC3)nc3ccccc32)c1
Among a and b , whose measured IC50 is the smaller figure? I would appreciate it if you answered with the label of your choice.
b
(b: 458 nM, a: 921 nM)

---

METHOD_NOTES: Metabolic stability in human liver microsomes assessed as half life at 2 ug/ml measured up to 45 mins by LC-MS/MS analysis
Type: ADME, Microsome
MEASUREMENT_CONDITIONS: dose 2 µg/ml
PARAMETER_MEASURED: half-life at 2 ug/ml (min)

> print(dat)
                            compound.string    parameter.measured  assay.value
1  Cc1cccc(Cn2c(CN3CCN(C(=O)C4CC4)CC3)nc3ccccc32)c1  half-life at 2 ug/ml           35
2  O=C(C1CC1)N1CCN(Cc2nc3ccccc3n2Cc2cccc(C(F)(F)F)c2)CC1  half-life at 2 ug/ml           27
3  O=C(C1CC1)N1CCN(Cc2nc3ccccc3n2Cc2ccccc2Cl)CC1  half-life at 2 ug/ml           32

---

TARGET_UNDER_TEST: Retinaldehyde dehydrogenase 3 (Homo sapiens)
Sequence (P47895 whole entry): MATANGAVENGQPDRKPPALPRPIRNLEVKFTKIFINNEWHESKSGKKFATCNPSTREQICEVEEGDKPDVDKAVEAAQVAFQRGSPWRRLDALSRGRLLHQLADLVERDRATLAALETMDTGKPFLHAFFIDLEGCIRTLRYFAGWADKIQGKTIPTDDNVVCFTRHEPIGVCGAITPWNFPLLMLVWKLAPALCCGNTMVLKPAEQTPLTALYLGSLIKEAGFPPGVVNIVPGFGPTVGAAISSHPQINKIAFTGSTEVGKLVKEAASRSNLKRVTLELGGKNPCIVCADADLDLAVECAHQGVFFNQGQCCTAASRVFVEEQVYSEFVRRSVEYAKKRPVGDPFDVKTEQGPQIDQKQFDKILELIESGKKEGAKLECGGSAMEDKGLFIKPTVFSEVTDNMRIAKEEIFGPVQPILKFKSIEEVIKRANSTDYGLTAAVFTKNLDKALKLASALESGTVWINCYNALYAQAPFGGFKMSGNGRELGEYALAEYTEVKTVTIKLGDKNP
PARAMETER_MEASURED: IC50 (nM)

Use the examples below as a reference point.
> print(dat)
                            compound.string  unit.descriptor  assay.value
1  CCC(=O)N1CCN(Cc2nc3ccccc3n2Cc2cccc(C)c2)CC1               nM         1680
2  O=C(C1CC1)N1CCN(Cc2nc3ccccc3n2Cc2cccc(Cl)c2)CC1               nM         1010

P. CC(C)=CCn1c(CN2CCN(C(=O)C3CC3)CC2)nc2ccccc21
Q. O=C(C1CC1)N1CCN(Cc2nc3ccccc3n2Cc2cccc(C(F)(F)F)c2)CC1
Which of these two has the smaller recorded IC50: P or Q ? Answer by quoting the chosen item's label.
Q

---

TARGET_UNDER_TEST: Aldehyde dehydrogenase 1A1 (Homo sapiens)
Sequence (P00352 whole entry): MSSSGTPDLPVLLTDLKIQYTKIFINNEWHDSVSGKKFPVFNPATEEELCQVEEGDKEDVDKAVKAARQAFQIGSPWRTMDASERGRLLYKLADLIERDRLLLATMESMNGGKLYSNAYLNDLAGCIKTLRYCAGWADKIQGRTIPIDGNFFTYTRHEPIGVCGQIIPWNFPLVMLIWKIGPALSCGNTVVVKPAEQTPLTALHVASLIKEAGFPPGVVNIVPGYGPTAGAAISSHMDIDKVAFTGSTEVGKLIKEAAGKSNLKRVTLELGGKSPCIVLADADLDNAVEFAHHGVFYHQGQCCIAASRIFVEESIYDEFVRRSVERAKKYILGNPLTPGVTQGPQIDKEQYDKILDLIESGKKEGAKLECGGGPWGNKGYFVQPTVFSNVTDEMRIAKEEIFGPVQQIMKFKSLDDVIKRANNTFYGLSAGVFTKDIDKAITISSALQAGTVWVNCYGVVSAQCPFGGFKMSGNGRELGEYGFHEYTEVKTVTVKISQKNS
METHOD_NOTES: Inhibition of human ALDH1A1 assessed as NADH formation using propionaldehyde as substrate at 10 uM by spectrophotometry
PARAMETER_MEASURED: inhibition (%)

> print(dat)
                            compound.string  assay.value
1  O=C(C1CC1)N1CCN(Cc2nc3ccccc3n2CC2CCCC2)CC1         44.5
2  Cc1ccc(Cn2c(CN3CCN(C(=O)C4CC4)CC3)nc3ccccc32)cc1         51.5
3  O=C(C1CC1)N1CCN(Cc2nc3ccccc3n2Cc2ccc(Cl)cc2)CC1         56.6
4  CC(=O)N1CCN(Cc2nc3ccccc3n2Cc2cccc(C)c2)CC1         70.3
5  O=C(C1CC1)N1CCN(Cc2nc3ccccc3n2Cc2ccccc2C(F)(F)F)CC1         56.3

---

TARGET_UNDER_TEST: Aldehyde dehydrogenase 1A1 (Homo sapiens)
METHOD_NOTES: Inhibition of human ALDH1A1 assessed as NADH formation using propionaldehyde as substrate at 10 uM by spectrophotometry
PARAMETER_MEASURED: inhibition (%)

> print(dat)
                            compound.string                         target.under.test  unit.descriptor  assay.value
1  O=C(C1CC1)N1CCN(Cc2nc3ccccc3n2Cc2ccccc2Cl)CC1  Aldehyde dehydrogenase 1A1 (Homo sapiens)                %         78.3
2  O=C(C1CC1)N1CCN(Cc2nc3ccccc3n2Cc2cccc(F)c2)CC1  Aldehyde dehydrogenase 1A1 (Homo sapiens)                %         27.1
3  Cc1cccc(Cn2c(CN3CCN(C(=O)c4ccc([N+](=O)[O-])cc4)CC3)nc3ccccc32)c1  Aldehyde dehydrogenase 1A1 (Homo sapiens)                %         24.3

a. Cc1cccc(Cn2c(NC3CCN(C(=O)c4ccco4)CC3)nc3ccccc32)c1
b. CC(C)CCn1c(NC2CCN(C(=O)C3CC3)CC2)nc2ccccc21
Given the two records a and b , choose the one whose inhibition value is lower. # reply format: chosen label
b
(b: 10.8%, a: 27.9%)
